Experiment: Selectivity ratio of IC50 for MDCK cells to EC50 for inhibition of virus-induced cytopathic effect of Influenza A virus Vietnam/1203/ 2004H/H5N1
Assay type: cell-based
Assay setup: dog, MDCK cells; read-out: Ratio IC50/EC50
Measurement kind: selectivity ratio

INSERT INTO results (smiles_entry, meas_value) VALUES
  ('NC(=O)c1ncn([C@@H]2O[C@H](CO)[C@@H](O)[C@H]2O)n1', '> 156'),
  ('Nc1ccn([C@H]2C[C@@H](CO)[C@H](O)[C@@H]2O)c(=O)n1', '< 10'),
  ('Nc1ccn([C@@H]2C[C@H](CO)[C@@H](O)[C@H]2O)c(=O)n1', '> 518');

The reported measurements were obtained from ChEMBL document CHEMBL1156973.
